# Test system: XIP peptide (Xip251-270)
# experimental details: small-molecule binders of XIP peptide, primary screen, biochemical, small-molecule microarray, fluorescence 635/667 nm, 0.5 µg/mL protein (AID 1183)
# test context: small-molecule microarray binding, fluorescence 635 nm; higher = more signal
composite z-score of 0.6 or higher: satisfied. Under 0.6: not satisfied.

> print(dat)
                                   molecule           target.of.assay  category.label
1  COc1ccc([Si](C)(C)[C@@H]2[C@@H](CC(=O)N(CCO)Cc3ccccc3)O[C@]3(C(=O)N(c4ccccc4)c4ccccc43)[C@H]2C)cc1  XIP peptide (Xip251-270)   not satisfied
2  Cc1ccccc1C(O)C1C=CC2C(=O)N(C)C(=O)C2N1N(c1ccccc1)c1ccccc1 (configuration not stated)  XIP peptide (Xip251-270)       satisfied
3  COc1ccc(-c2cc3c(c(CCc4ccccc4)n2)[Si](C(C)C)(C(C)C)OC3)cn1  XIP peptide (Xip251-270)   not satisfied
4  COc1ccc(CN(C2=CC[C@@]3(C(N)=O)C(=O)C(Cl)=C(Cl)C(=O)[C@@]3(C#N)C2)S(=O)(=O)c2ccc(Br)cc2)cc1  XIP peptide (Xip251-270)       satisfied
5  COCCCNC(=O)[C@]1(CCS(=O)(=O)c2ccccc2)N=C(c2ccc(OCCCO)cc2)O[C@@H]1c1ccccc1CN=[N+]=[N-]  XIP peptide (Xip251-270)       satisfied
6  CCCC[C@@H]1C[C@H]1[C@@H](NC(=O)c1cccs1)c1ccc(C(F)(F)F)cc1  XIP peptide (Xip251-270)   not satisfied

###

# experimental details: P. aeruginosa biofilm formation inhibitors, primary screen, strain PAO1, LB-PBS medium, absorbance 600 nm (AID 1176)
# test context: P. aeruginosa PAO1 growth/biofilm, A600, 12 h; higher = more signal
Activity calls are given as the source filed them. No rule for the calls is given here.
Overview of reported z-score across a group of compounds:
measured quantity: z-score

compound	reported result
CN(C)CCCNC(=O)[C@@]1(c2ccc([N+](=O)[O-])cc2)CC(=O)N(CC23CC4CC(CC(C4)C2)C3)[C@@H]1c1ccc(CO)cc1I	0.277 (inactive)
CCCC[C@@H]1C[C@H]1[C@@H](NC(=O)Cc1ccccc1)c1ccc(-c2ccccc2)cc1	-1.19 (inactive)
CCOc1cc(C(O)C2C=CC3C(=O)N(c4ccccc4)C(=O)C3N2Nc2ccc(C#N)cc2)ccc1O (configuration not stated)	0.888 (inactive)
CCCC[C@@H](O)C1=C(COc2ccccc2)C[C@H]2C(=O)N(C)C(=O)[C@H]2[C@H]1CO	0.613 (inactive)
COc1cc2c(cc1OC)CN(C(=O)[C@@H]1[C@H]3C(=O)O[C@H](c4ccccc4)[C@H](c4ccccc4)N3[C@H](c3ccc(OCCO)cc3)[C@@]13C(=O)Nc1ccc(C#CC4(O)CCCCCC4)cc13)CC2	4.2 (inactive)
C=C(/C(=C/C[C@H](OC(=O)c1ccncc1)c1ccc(CO)o1)c1cc(C(=O)OC)ccc1OC)C(C)C	1.38 (inactive)
C=CCC(OC(C)=O)[C@@H]1[C@@H](N(Cc2cccc3ccccc23)C(=O)Cc2ccc(OC)cc2)c2cc(OCCCO)ccc2N1C(=O)c1ccc2ccccc2n1 (some centres not stated)	-0.145 (inactive)
